Catalogue of composite z-score readings, one per entry.
assay: small-molecule binders of probe aInhba, primary screen, biochemical, small-molecule microarray, 635/667 nm fluorescence (AID 1148); conditions: higher = more signal;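 note: score merges 667nm spot fluorescence with signal-to-noise for antibody binding to printed compounds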
Output spec: single numeric token, no unit.

compound	composite z-score
COc1ccc([Si](C)(C)[C@@H]2[C@@H](CC(=O)N(CCO)Cc3ccccc3)O[C@]3(C(=O)N(c4ccccc4)c4ccccc43)[C@H]2C)cc1	-0.125
Cc1ccc(S[C@]2(C(=O)NCC(F)(F)F)CC(=O)N(C3CCCCC3)[C@@H]2c2ccc(CO)cc2I)cc1	0.0074

Data request: Which composite z-score value belongs to CCCCC=C[C@@H](NC(=O)c1ccc(-c2ccccc2)cc1)c1ccccc1 ?
Data returned: 0.319

Data request: Which composite z-score value belongs to C=CC1c2cc(O)c(OC)cc2CCN1Cc1cc2c(cc1Br)OCO2 (centres undefined) ?
Data returned: -0.128

Data request: Which composite z-score value belongs to COc1cc2c(cc1OC)CN(C(=O)[C@@H]1[C@H]3C(=O)O[C@H](c4ccccc4)[C@H](c4ccccc4)N3[C@H](c3ccc(OCCO)cc3)[C@@]13C(=O)Nc1ccccc13)CC2 ?
Data returned: 0.188

Data request: Which composite z-score value belongs to [N-]=[N+]=NCc1ccccc1C[C@@]1(C(=O)N2CCCCC2)N=C(c2ccc(OCCCO)cc2)O[C@@H]1c1ccccc1 ?
Data returned: 0.159

Data request: Which composite z-score value belongs to COC(=O)[C@@]1(Cc2ccc(OC)cc2)[C@H]2c3cc(C(=O)N4CCCC4)n(Cc4c(-c5ccccc5)noc4C)c3C[C@H]2CN1C(=O)c1ccccc1 ?
Data returned: 0.659

Data request: Which composite z-score value belongs to C=C(C(=O)CC[C@@H](OC(C)=O)c1ccc(CO)o1)C(C)C ?
Data returned: -0.0427

Data request: Which composite z-score value belongs to [N-]=[N+]=NCc1ccccc1[C@H]1OC(c2ccc(OCCCO)cc2)=N[C@@]1(CCS(=O)(=O)c1ccccc1)C(=O)N1CCCCC1 ?
Data returned: 0.211

Data request: Which composite z-score value belongs to C=CC[C@@]1(C(=O)N2CCOCC2)N=C(c2ccc(OCCCO)cc2)O[C@@H]1c1ccccc1CN=[N+]=[N-] ?
Data returned: 0.305

Data request: Which composite z-score value belongs to COc1ccccc1CN1C(=O)c2ccccc2[C@](Cc2ccccc2I)(C(=O)NCC(F)(F)F)[C@@H]1c1ccc(CO)cc1 ?
Data returned: 0.189

Data request: Which composite z-score value belongs to N#Cc1ccc(C(O)C2C=CC3C(=O)N(c4ccccc4)C(=O)C3N2Nc2ccccc2)cc1 (centres undefined) ?
Data returned: 0.144

Data request: Which composite z-score value belongs to C=CCC(OC(C)=O)[C@@H]1[C@@H](N(Cc2cccc3ccccc23)C(=O)c2cccc3ccccc23)c2cc(OCCCO)ccc2N1C(=O)c1ccc(-c2ccccc2)cc1 (some centres undefined) ?
Data returned: 0.0543

Data request: Which composite z-score value belongs to CO[C@H]1O[C@H](CO)[C@@H](OC(=O)Nc2ccc3c(c2)OCO3)[C@H](OC(=O)c2cc3ccccc3[nH]2)[C@H]1OC(=O)c1cc2ccccc2[nH]1 ?
Data returned: -0.128

Data request: Which composite z-score value belongs to CCOc1cc(C(O)C2C=CC3C(=O)N(C)C(=O)C3N2Nc2ccccc2)ccc1O (centres undefined) ?
Data returned: -0.0297

Data request: Which composite z-score value belongs to O=C1C[C@@](C(=O)NCCN2CCOCC2)(c2ccc([N+](=O)[O-])cc2)[C@@H](c2ccc(CO)cc2I)N1C1CCCCC1 ?
Data returned: -0.0468

Data request: Which composite z-score value belongs to C[N+](C)(C)CCCCCCNC(=O)[C@H]1C[C@H]2C(=O)N[C@@H](Cc3ccccc3)C(=O)N2[C@H]1c1ccc(O)cc1 ?
Data returned: -0.0695

Data request: Which composite z-score value belongs to O=C(NCc1ccccc1)[C@@H]1c2ccccc2C(=O)N(Cc2ccccc2C(F)(F)F)[C@H]1c1ccc(CO)cc1 ?
Data returned: -0.201

Data request: Which composite z-score value belongs to CC(C)(C)N1CC=CC23O[C@@H]4C=CCCOC(=O)C4[C@H]2C(=O)N(CCO)[C@@H]3C1=O (some centres undefined) ?
Data returned: -0.237

Data request: Which composite z-score value belongs to C[C@H]1NC(=O)[C@@]23C(=O)N[C@@H](Cc4ccccc4)C2[C@H](C)[C@@]2(C)O[C@H]2C3/C=C/C/C=C\CNC(=O)[C@H](Cc2ccccc2)NC1=O (some centres undefined) ?
Data returned: -0.0963
